All figures here come from ChEMBL document CHEMBL3988442.

SYSTEM: AMP-activated protein kinase, AMPK (Homo sapiens) (UniProt P54646+O43741+P54619+Q9UGJ0+Q9Y478+Q13131+Q9UGI9)
ASSAY_SUMMARY: AMP-dependent Kinase enzyme assay. An in vitro enzyme assay that detects ADP turnover that is directly proportional to AMPK activity. This uses naive AMPK that is activated during the assay with MK-8722
Assay type: functional
Design: scale not given: direction of the effect not stated beside the values
MEASUREMENT_SETUP: 30 µM
QUANTITY_NAME: Percent Effect (%)
Field format: number, assumed %, no unit text.

Recorded Percent Effect, per entry:
{"columns": ["MOLECULE", "OBSERVED_MEASUREMENT"],
 "data": [
  ["CC(CN1CCC2(CC1)c1nc[nH]c1CCN2S(C)(=O)=O)C(F)(F)F (stereo not given)", -4.55],
  ["CN1CCCN(C(=O)c2ccc3c(c2)nc(N2CCOCC2)n3C)CC1", -3.77],
  ["N#Cc1cc(NC(=O)C2CC=CC2)ccc1N1CCC(O)CC1", -2.38],
  ["COC1CCCN(C(=O)Nc2nc(C)n(C)n2)C1 (stereo not given)", -6.08],
  ["O=C(NCN1CCc2ccccc2C1)c1cnccn1", -2.81]
]}

Enquiry: Which measured Percent Effect value corresponds to O=C(CN(Cc1cccnc1)CC1CCCO1)Nc1ccc(F)cc1 (stereo not given) ?
Return: 1.19

Enquiry: Fill blank: measured Percent Effect of the molecule `Cc1nnc2n1CCN(Cc1csc(-c3ccc(F)cc3)n1)C2` is ____.
Return: -2.56

Enquiry: What does the record list as Percent Effect for `O=C(Cc1cccnc1)N1CCC2(CC1)CCN(C1CCOCC1)C2` ?
Return: 0.681

Enquiry: Given `Cc1ccoc1C(=O)NC1CCN(Cc2cccc3c2OCCO3)CC1` , state its recorded Percent Effect.
Return: -78.8

Enquiry: Which Percent Effect value is on record for `COCCNC(=O)[C@H]1C[C@@H]2CCN(Cc3ccoc3)C[C@H]2O1` ?
Return: 5.25

Enquiry: Param item = COc1cccc(CN2CCOC(Cn3nc(C)cc3C)C2)c1 (stereo not given) ; retrieve measured Percent Effect.
Return: 25.1

Enquiry: So what does the record say about Percent Effect for `Cc1ccc(-n2nnc(C(=O)NS(C)(=O)=O)c2C2CC2)cc1` ?
Return: -7.9

----------
Listing of entries alongside the reported Percent Effect.
SYSTEM: Tyrosyl-tRNA synthetase, putative (Trypanosoma cruzi (strain CL Brener))
ASSAY_SUMMARY: Trypanosoma cruzi tyrosyl tRNA synthetase (TcYRS) _High Tyrosine SOP; also: in the data most compounds retested in dose-response had high values
Type: functional
Set-up: scale not given: direction of the effect not stated beside the values
MEASUREMENT_SETUP: 30 µM
Please state the figure in %; there is no need to write the unit.

Before answering, review these 3 worked examples.
{"columns": ["COMPOUND", "UNIT_NAME", "Percent Effect"],
 "data": [
  ["O=C1CCCc2nccc(-c3ccccc3)c21", "%", 3.17],
  ["O=C(c1ccc[nH]1)N1C[C@H]2CC[C@@H]1CN(c1ncccn1)C2", "%", 6.45],
  ["COc1cccc(OC)c1CN1CCC2(CC(Nc3ccncn3)C2)C1 (centres undefined)", "%", 5.29]
]}

Enquiry: Data request, read-out Percent Effect, for COc1ccc2c(c1)OCC(CNC(=O)c1ccc(=O)n(C)c1)C2 (centres undefined)
Return: 4.79

Enquiry: For the compound `c1cnc2c(c1)cc([C@H]1CCCO1)n2CCN1CCOCC1` , what Percent Effect is on record?
Return: 1.07

Enquiry: For Cn1cnc2c1C(COCC1CCOCC1)CN(C(=O)c1ccoc1)C2 (centres undefined) , what is its reported Percent Effect?
Return: 1.06

Enquiry: I'd like to know its Percent Effect. The compound in question is `Cc1c(O)oc(-c2ccc(Br)cc2)nc1=O`
Return: 3.17

Enquiry: # lookup: Percent Effect of O=C(C1=CCCCC1)N1CCC2(CC1)COC(COc1ccccn1)C2 (centres undefined)
Return: 3.68

Enquiry: // returns reported Percent Effect for input CC(NC(=O)CCCOc1ccccc1)c1nnc2n1CCCCC2 (centres undefined)
Return: 5.42
